Recorded CD8 T cell proliferation [% of control], Donor A, 1 nM antibody for the following binders
Target: T1, cell-bound CD73 (human, UniProt P21589 27-549)
T1 sequence (looked up): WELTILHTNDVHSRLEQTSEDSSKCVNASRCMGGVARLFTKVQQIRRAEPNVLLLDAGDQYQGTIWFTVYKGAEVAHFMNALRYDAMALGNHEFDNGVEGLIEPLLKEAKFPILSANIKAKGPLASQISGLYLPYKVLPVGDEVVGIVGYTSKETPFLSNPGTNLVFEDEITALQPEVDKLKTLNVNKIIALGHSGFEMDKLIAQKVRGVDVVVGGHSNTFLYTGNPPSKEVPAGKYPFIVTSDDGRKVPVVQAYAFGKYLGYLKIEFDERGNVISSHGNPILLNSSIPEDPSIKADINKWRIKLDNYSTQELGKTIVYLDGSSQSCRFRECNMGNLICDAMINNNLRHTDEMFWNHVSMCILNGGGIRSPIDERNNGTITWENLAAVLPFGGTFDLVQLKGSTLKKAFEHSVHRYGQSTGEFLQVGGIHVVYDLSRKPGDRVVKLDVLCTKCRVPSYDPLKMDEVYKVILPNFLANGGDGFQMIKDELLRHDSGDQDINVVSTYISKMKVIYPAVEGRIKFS
Experiment: cell-based or functional assay
# value in %; strip the unit string

{"binder": "C6 (antibody, human IgG1, kappa, L234A L235A, V domains shown, Humanized monoclonal antibody; also called anti-CD73 antibody C6) VH: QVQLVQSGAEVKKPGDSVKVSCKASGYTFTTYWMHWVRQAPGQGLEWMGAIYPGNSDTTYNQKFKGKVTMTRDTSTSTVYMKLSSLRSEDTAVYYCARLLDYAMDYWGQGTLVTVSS VL: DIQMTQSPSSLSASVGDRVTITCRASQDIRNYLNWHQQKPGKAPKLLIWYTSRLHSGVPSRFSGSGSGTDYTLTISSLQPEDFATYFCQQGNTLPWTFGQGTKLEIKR", "unitInfo": "%", "quantitativeResult": 102}
{"binder": "C1 (antibody, human IgG1, kappa, L234A L235A, V domains shown, Humanized monoclonal antibody; also called anti-CD73 antibody C1) VH: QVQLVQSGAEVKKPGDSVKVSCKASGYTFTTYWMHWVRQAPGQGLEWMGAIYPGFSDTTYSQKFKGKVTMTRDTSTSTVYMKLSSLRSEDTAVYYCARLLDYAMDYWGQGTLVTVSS VL: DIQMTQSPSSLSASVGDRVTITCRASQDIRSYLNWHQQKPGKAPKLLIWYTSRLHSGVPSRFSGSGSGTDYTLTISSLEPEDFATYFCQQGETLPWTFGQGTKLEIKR", "unitInfo": "%", "quantitativeResult": 104}
{"binder": "B2 (antibody, human IgG1, kappa, L234A L235A, V domains shown, Humanized monoclonal antibody; also called anti-CD73 antibody B2) VH: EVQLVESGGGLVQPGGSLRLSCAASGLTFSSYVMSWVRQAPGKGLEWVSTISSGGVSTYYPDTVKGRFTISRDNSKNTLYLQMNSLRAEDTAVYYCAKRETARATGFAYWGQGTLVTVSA VL: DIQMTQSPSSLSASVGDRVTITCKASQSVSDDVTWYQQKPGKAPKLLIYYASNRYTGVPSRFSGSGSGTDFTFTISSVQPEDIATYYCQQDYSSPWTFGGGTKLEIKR", "unitInfo": "%", "quantitativeResult": 55.6}
{"binder": "C5 (antibody, human IgG1, kappa, L234A L235A, V domains shown, Humanized monoclonal antibody; also called anti-CD73 antibody C5) VH: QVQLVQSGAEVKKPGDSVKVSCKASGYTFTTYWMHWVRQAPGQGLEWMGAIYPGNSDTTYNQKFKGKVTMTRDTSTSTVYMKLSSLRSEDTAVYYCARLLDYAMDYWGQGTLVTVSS VL: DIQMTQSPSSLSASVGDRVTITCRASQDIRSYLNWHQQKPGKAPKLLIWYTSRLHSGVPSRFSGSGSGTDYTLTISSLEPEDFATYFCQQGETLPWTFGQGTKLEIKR", "unitInfo": "%", "quantitativeResult": 103}

Moving on to another binder below.
If you can, please state the reported CD8 T cell proliferation [% of control], Donor A, 1 nM antibody value of C2 (antibody, human IgG1, kappa, L234A L235A, V domains shown, Humanized monoclonal antibody; also called anti-CD73 antibody C2) VH: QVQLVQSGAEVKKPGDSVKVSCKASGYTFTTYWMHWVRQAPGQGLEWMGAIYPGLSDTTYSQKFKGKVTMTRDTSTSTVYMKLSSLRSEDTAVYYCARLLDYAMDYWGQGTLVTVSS VL: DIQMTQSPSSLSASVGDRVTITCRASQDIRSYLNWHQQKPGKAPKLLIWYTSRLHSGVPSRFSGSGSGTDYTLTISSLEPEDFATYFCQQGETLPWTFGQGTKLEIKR .
103
